Ref: the supplement of paper PMC13380429

- System: Vero E6 infected with SARS-CoV-2
- protocol.description: SARS-CoV-2 infection rate relative to infected DMSO; higher = more infection, active = 60 or less
- assay.setup: 24 h
test.readout: SARS-CoV-2 infection rate (%)
// return numeric value only (unit: %, not printed)

As a guide, the following entries are already answered.
Cc1nc(-c2cccnc2)sc1C(=O)Nc1ccccc1-c1cn2c(CN3CCOCC3)csc2n1 (10 µM) ... 98
Cc1cc(C(C)(C)C)cc(C)c1CC1=NCCN1 [xylometazoline] (10 µM) ... 106
CC(=O)/N=c1/sc(S(N)(=O)=O)nn1C [methazolamide] (10 µM) ... 105
N[C@@H](Cc1ccc(Cl)cc1)C(=O)O (racemic) [fenclonine-(+/-)] (10 µM) ... 109
COc1cc2ncn(-c3cc(OCc4ccccc4C(F)(F)F)c(C(N)=O)s3)c2cc1OC (10 µM) ... 106
CS[C@H]1SC[C@H]2C(=O)N(C)[C@@H](C(C)C)C(=O)OC[C@@H](NC(=O)c3cnc4ccccc4n3)C(=O)N[C@@H](C)C(=O)N(C)[C@@H]1C(=O)N(C)[C@@H](C(C)C)C(=O)OC[C@@H](NC(=O)c1cnc3ccccc3n1)C(=O)N[C@@H](C)C(=O)N2C [echinomycin] (0.833333 µM) ... 96

Need SARS-CoV-2 infection rate, item C=C1C(=O)O[C@@H]2C[C@@]3(C)CCC[C@H](C)C3=C[C@H]12 [alantolactone] (10 µM)
32

Need SARS-CoV-2 infection rate, item Cn1ccc2cc3c(cc21)CCN3C(=O)Nc1cccnc1 (10 µM)
99

###

- System: Vero E6 infected with SARS-CoV-2
- protocol.description: SARS-CoV-2 infection rate relative to infected DMSO; higher = more infection, active = 60 or less
- assay.setup: 24 h
Outcomes you can answer with include only these: label 1 for active, label 0 for inactive

FC(F)(F)Oc1ccc2nc(-c3ccc(OCCOCCOc4ccc(-c5nc6ccc(OC(F)(F)F)cc6[nH]5)nc4)cn3)[nH]c2c1 (10 µM) ... label 0
NNC(=O)CSc1nc2scc(-c3ccccc3)c2c(=O)n1-c1ccccc1 (10 µM) ... label 0
O=C(CBr)N1CC([N+](=O)[O-])([N+](=O)[O-])C1 (10 µM) ... label 0
Cc1cccc(C)c1-n1c(=O)c2cnc(Nc3ccc(N4CCN(C)CC4)cc3)nc2n2c3ccccc3nc12 (0.833333 µM) ... label 0
OCC(Br)(Br)Br [tribromoethanol] (10 µM) ... label 0
c1cnc2c([O][Ga]([O]c3cccc4cccnc34)[O]c3cccc4cccnc34)cccc2c1 [gallium-triquinolin-8-olate] (10 µM) ... label 1

Now let's try a different one.
For this compound, state the assay outcome: Cc1ccc(NC(=O)C(C)C)cc1C1CCN(Cc2ccc(Oc3ccc(F)c(F)c3)cc2)CC1 (0.833333 µM)
label 0

###

- Tested on: Vero E6 infected with SARS-CoV-2
- protocol.description: inhibition of SARS-CoV-2 cytopathic effect; higher = more antiviral protection, active = above 15
- assay.setup: 100 nM; 48 h
Each entry below carries its reported inhibition of SARS-CoV-2 cytopathic effect.
// return numeric value only (unit: %, not printed)

As a guide, the following entries are already answered.
CN1CCc2cc(Cl)c(O)cc2[C@@H](c2ccccc2)C1 ... 7.29
CC[C@H](C)[C@H](N)C1=N[C@H](C(=O)N[C@@H](CC(C)C)C(=O)N[C@H](CCC(=O)[O-])C(=O)N[C@H](C(=O)N[C@H]2CCCCNC(=O)[C@H](CC(N)=O)NC(=O)[C@@H](CC(=O)[O-])NC(=O)[C@H](Cc3cnc[nH]3)NC(=O)[C@@H](Cc3ccccc3)NC(=O)[C@H]([C@@H](C)CC)NC(=O)[C@@H](CCCN)NC2=O)[C@@H](C)CC)CS1.[Zn+2] ... 2.85

What measured inhibition of SARS-CoV-2 cytopathic effect is associated with CN1C(=O)N[C@H](Cc2c[nH]c3c(Cl)cccc23)C1=O on Vero E6 infected with SARS-CoV-2?
-6.01

What measured inhibition of SARS-CoV-2 cytopathic effect is associated with CCCN(C/C=C/I)C1CCc2cccc(O)c2C1 (configuration not stated) [8-hydroxy-PIPAT] on Vero E6 infected with SARS-CoV-2?
3.63

What measured inhibition of SARS-CoV-2 cytopathic effect is associated with O=C1NCC2(CCN(CCc3ccccc3)CC2)O1 [fenspiride] on Vero E6 infected with SARS-CoV-2?
2.18

What measured inhibition of SARS-CoV-2 cytopathic effect is associated with Oc1ccc(Cl)c2c1CCC2 on Vero E6 infected with SARS-CoV-2?
-1.84

What measured inhibition of SARS-CoV-2 cytopathic effect is associated with CC(NC(=O)c1ccccc1/N=C/c1c(O)ccc2ccccc12)c1ccccc1 (configuration not stated) on Vero E6 infected with SARS-CoV-2?
-3.54

###

- Tested on: Vero E6 infected with SARS-CoV-2
- protocol.description: inhibition of SARS-CoV-2 cytopathic effect; higher = more antiviral protection, active = above 15
- assay.setup: 833.33 nM; 48 h
Where a name gives a salt, the structure may show the parent alone.
Each entry below carries its reported inhibition of SARS-CoV-2 cytopathic effect.
// return numeric value only (unit: %, not printed)

CN(C)CCOc1ccc(/C(=C(/CCCl)c2ccccc2)c2ccccc2)cc1 [Toremifene citrate] ... 0.65
C[C@@H]1O[C@@H](OC[C@H]2O[C@@H](Oc3c(-c4ccc(O)c(O)c4)oc4cc(O)cc(O)c4c3=O)[C@H](O)[C@@H](O)[C@@H]2O)[C@H](O)[C@H](O)[C@H]1O [rutin] ... 0.96
Cc1cc(/C=C2\SC(=O)N(c3ccccc3)C2=O)c(C)n1-c1cccnc1 ... 1.52

Turning now to a further molecule:
Need inhibition of SARS-CoV-2 cytopathic effect, item CC1(C)CCC[C@]2(C)[C@H]3CC(=O)O[C@]3(C)CC[C@@H]12 [Sclareolide (Norambreinolide)]
2.01

###

- Tested on: Vero E6 infected with SARS-CoV-2
- protocol.description: SARS-CoV-2 infection rate relative to infected DMSO; higher = more infection, active = 60 or less
- assay.setup: 24 h
test.readout: SARS-CoV-2 infection rate (%)
// return numeric value only (unit: %, not printed)

As a guide, the following entries are already answered.
Clc1cccc(C(c2ccc3[nH]cnc3c2)n2ccnc2)c1 (configuration not stated) [liarozole] (10 µM) ... 98
CN1C(=O)CCS(=O)(=O)C1c1ccc(Cl)cc1 (configuration not stated) [chlormezanone] (10 µM) ... 117
c1cnc(N2CCN(Cc3ccc4c(c3)OCO4)CC2)nc1 [piribedil] (10 µM) ... 98.5
COc1ccc(-c2cc3c(C)nc(N)nc3n([C@H]3CC[C@H](OCCO)CC3)c2=O)cn1 (0.833333 µM) ... 102
O=c1n(CC2CO2)c(=O)n(CC2CO2)c(=O)n1CC1CO1 (configuration not stated) [teroxirone] (10 µM) ... 115
CC(C)(C)c1ccc(C(=O)CCCN2CCC(OC(c3ccccc3)c3ccccc3)CC2)cc1 [ebastine] (10 µM) ... 50
O=C1NN(C(=O)Nc2ccc(Br)cc2)[C@@H](c2ccccc2)[C@@H]1c1ccccc1 (10 µM) ... 108
CN1CCN(CCCCN2C(=O)CN(/N=C/c3ccc(-c4ccc(Cl)cc4)o3)C2=O)CC1 [azimilide] (10 µM) ... 102
CCCCCCNC(=O)n1cc(F)c(=O)[nH]c1=O [carmofur] (0.833333 µM) ... 96
CC(C)Nc1cc(-c2c[nH]c(C(=O)N[C@H](CO)c3cccc(Cl)c3)c2)c(Cl)cn1 (0.833333 µM) ... 109

Need SARS-CoV-2 infection rate, item CN1C(=O)C(N2CCCCC2)S/C1=C\C(=O)O (configuration not stated) [ozolinone] (10 µM)
108

Need SARS-CoV-2 infection rate, item O=S(=O)(F)Cc1ccccc1 [phenylmethylsulfonyl-fluoride] (10 µM)
95

Need SARS-CoV-2 infection rate, item C[C@@H](CN(C)C)CN1c2ccccc2Sc2ccccc21 (racemic) [alimemazine] (0.833333 µM)
105

Need SARS-CoV-2 infection rate, item CO/N=C(\C(=O)N[C@@H]1C(=O)N2C(C(=O)OCOC(=O)C(C)(C)C)=C(C)CS[C@H]12)c1csc(N)n1 [cefetamet-pivoxil] (10 µM)
96.5

Need SARS-CoV-2 infection rate, item CCCN1CC(NS(=O)(=O)N(CC)CC)CC2Cc3c(O)cccc3CC21 (configuration not stated) [quinagolide] (10 µM)
112

Need SARS-CoV-2 infection rate, item COC(=O)[C@@H](N)CCCNC(=N)N[N+](=O)[O-] (10 µM)
98.5

Need SARS-CoV-2 infection rate, item COc1cc2ncnc(Nc3ccc(Oc4ccccc4)cc3)c2cc1OC [SRC-kinase-inhibitor-I] (0.833333 µM)
110
